meta.source: the FLAb antibody collection (doi:10.7554/elife.23156)

B1: scFv; the commonest letter at each place (parent)
chain 1: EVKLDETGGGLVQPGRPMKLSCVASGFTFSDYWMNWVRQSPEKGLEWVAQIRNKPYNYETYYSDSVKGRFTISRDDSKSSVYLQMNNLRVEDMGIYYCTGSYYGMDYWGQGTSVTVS
chain 2: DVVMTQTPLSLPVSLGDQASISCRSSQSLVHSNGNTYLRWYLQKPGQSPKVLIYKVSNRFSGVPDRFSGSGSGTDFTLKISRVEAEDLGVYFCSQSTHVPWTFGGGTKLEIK

Variants of: B1
protocol_notes: yeast surface expression (ratio to wild type); higher = more expressed
run_conditions: format: scFv 4-4-20, heavy + light
variants and their reported yeast surface expression
endpoint_name: yeast surface expression

mutation_list: chain 1 M34G N35P
result_value: 0.778

mutation_list: chain 1 Y102H W108A
result_value: 0.528

mutation_list: chain 1 W33N M34D
result_value: 0.567

mutation_list: chain 1 Y102L G104W
result_value: 0.263

mutation_list: chain 1 S30V D31V W36E
result_value: 1.33

mutation_list: chain 1 M34C
result_value: 0.712

mutation_list: chain 1 F29S S30H
result_value: 0.945

mutation_list: chain 1 N35G V37K
result_value: 0.46

mutation_list: chain 1 G100P D106M
result_value: 0.537

mutation_list: chain 1 Y32H W36F
result_value: 0.839

mutation_list: chain 1 G100K D106V
result_value: 0.171

mutation_list: chain 1 F29I M34T
result_value: 0.54

mutation_list: chain 1 G100I S101G D106C
result_value: 0.777

mutation_list: chain 1 G100A G104L D106M
result_value: 0.244

mutation_list: chain 1 S30P W33P
result_value: 0.628

mutation_list: chain 1 G100V Y103F
result_value: 0.679

mutation_list: chain 1 Y102I W108N
result_value: 0.316

mutation_list: chain 1 G104K Y107N
result_value: 0.424

mutation_list: chain 1 Y32W N35T
result_value: 0.786

mutation_list: chain 1 M34C V37F
result_value: 0.777

mutation_list: chain 1 T28W D31F
result_value: 0.553

mutation_list: chain 1 M105V W108C
result_value: 0.461
